Source of measurements: patent US20220348590A1

biological target: human recombinant COX2 (hCOX2); assay: LCMS-based COX2 enzymatic inhibition assay (PGE2 quantification); format: biochemical; design: COX2 2 minutes pge2/pge2d4 area ratio Avg; other: 2 minutes; readout pge2/pge2d4 area ratio; average; COX2 2 minutes pge2/pge2d4 area ratio Avg; LLE; average LLE; COX2 2 minutes pge2 area (counts) Avg; readout pge2 area (counts); other: 2 min; "ovine COX2 (oCOX2), human recombinant COX2 (hCOX2)"; details: 2 minutes; readout pge2/pge2d4 area ratio; average LLE
Each entry falls in a class defined on COX2 2 minutes pge2/pge2d4 area ratio Avg. LLE; the bands are 0 (below 4), 1 (4 to below 5), 2 (5 or more)

## Input Returns: class label. Input: CS(=O)(=O)c1ccc(-c2cncc(OCc3cccs3)n2)cc1
## Output 2

## Input Determine which band this compound sits in: CS(=O)(=O)c1ccc(-c2cncc(OC[C@@H]3CCCS3)n2)cc1 (single isomer, unassigned)
## Output 1

## Input Tag the class for CS(=O)(=O)c1ccc(-c2cccc(C(=O)Cc3cccs3)n2)cc1
## Output 0

## Input Class? Entry: CS(=O)(=O)c1ccc(-c2cncc(OCc3ccoc3)n2)cc1
## Output 2

## Input Hi there! Could you help me figure out the category for CS(=O)(=O)c1ccc(-c2ccc3ccn(Cc4ccoc4)c3n2)cc1 please?
## Output 0

## Input Which category does the recorded COX2 2 minutes pge2/pge2d4 area ratio Avg. LLE put CS(=O)(=O)c1ccc(-c2nc(OCc3cccs3)cc3ncccc23)cc1 in?
## Output 0

## Input Kindly state the category for this compound: CS(=O)(=O)c1ccc(-c2cc(F)cc(NCc3ccoc3)n2)cc1
## Output 1

## Input State the class of the compound shown: COc1cc(NCc2cccs2)nc(-c2ccc(S(C)(=O)=O)cc2)c1
## Output 1

## Input Into which category would you place CS(=O)(=O)c1ccc(-c2cncc(NC(=O)c3cccs3)n2)cc1 ?
## Output 1

---

Biological target: human recombinant COX2 (hCOX2)
Sequence (P35354 1-604): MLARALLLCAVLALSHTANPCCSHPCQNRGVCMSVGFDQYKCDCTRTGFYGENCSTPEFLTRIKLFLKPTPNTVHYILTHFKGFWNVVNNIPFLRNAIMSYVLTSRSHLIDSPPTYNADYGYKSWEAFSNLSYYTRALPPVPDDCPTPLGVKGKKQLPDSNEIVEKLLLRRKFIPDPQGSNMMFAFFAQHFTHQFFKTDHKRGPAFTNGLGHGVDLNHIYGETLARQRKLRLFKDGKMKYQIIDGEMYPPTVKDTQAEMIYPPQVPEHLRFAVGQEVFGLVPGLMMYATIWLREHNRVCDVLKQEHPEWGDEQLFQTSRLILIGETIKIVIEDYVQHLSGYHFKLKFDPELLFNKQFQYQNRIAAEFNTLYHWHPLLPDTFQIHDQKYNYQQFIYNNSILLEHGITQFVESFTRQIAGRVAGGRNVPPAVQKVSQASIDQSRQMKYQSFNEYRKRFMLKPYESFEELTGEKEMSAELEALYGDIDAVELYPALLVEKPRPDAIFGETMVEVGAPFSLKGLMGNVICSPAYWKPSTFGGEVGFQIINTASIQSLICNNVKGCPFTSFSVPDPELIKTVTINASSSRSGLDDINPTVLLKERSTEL
Assay: LCMS-based COX2 enzymatic inhibition assay (PGE2 quantification)
Format: biochemical
Parameters: COX2 2 minutes pge2/pge2d4 area ratio Avg; other: 2 minutes; readout pge2/pge2d4 area ratio; average; COX2 2 minutes pge2/pge2d4 area ratio Avg; LLE; average LLE; COX2 2 minutes pge2 area (counts) Avg; readout pge2 area (counts); other: 2 min; "ovine COX2 (oCOX2), human recombinant COX2 (hCOX2)"
Conditions: 2 minutes; readout pge2/pge2d4 area ratio; average LLE
Assignment: determine reported COX2 2 minutes pge2/pge2d4 area ratio Avg. LLE for the given molecules.
Keep the answer to the number alone.

## Input Value lookup for COX2 2 minutes pge2/pge2d4 area ratio Avg. LLE; key = CS(=O)(=O)c1ccc(-c2cnc(F)c(NCc3cccs3)n2)cc1 [Compound 97]
## Output 4.517

## Input Endpoint output: COX2 2 minutes pge2/pge2d4 area ratio Avg. LLE of CSc1ccc(-c2cccc(NCc3ccco3)n2)cc1 [Compound 282] . Value?
## Output 1.004

## Input Data request, read-out COX2 2 minutes pge2/pge2d4 area ratio Avg. LLE, for Cn1ccc(CNc2cncc(-c3ccc(S(C)(=O)=O)cc3)n2)n1 [Compound 245]
## Output 4.632

## Input What COX2 2 minutes pge2/pge2d4 area ratio Avg. LLE value was documented for this molecule, CS(=O)(=O)c1ccc(-n2ccc3ccc(NCc4ccco4)nc32)cc1 [Compound 125] ?
## Output 3.017

## Input Which COX2 2 minutes pge2/pge2d4 area ratio Avg. LLE reading was recorded for the molecule CS(=O)(=O)c1ccc(-c2cncc(NCc3ccc(F)nc3)n2)cc1 [Compound 208] ?
## Output 4.4967

## Input What value of COX2 2 minutes pge2/pge2d4 area ratio Avg. LLE has been recorded for this entry: CS(=O)(=O)c1ccc(-c2cccc(NCc3ccn[nH]3)n2)cc1 [Compound 264]
## Output 2.63

## Input For the molecule shown here, CS(=O)(=O)c1ccc(-c2cncc(CCc3cccs3)n2)cc1 [Compound 225] , give the reported COX2 2 minutes pge2/pge2d4 area ratio Avg. LLE.
## Output 3.328

## Input COX2 2 minutes pge2/pge2d4 area ratio Avg. LLE for COc1nc(NCc2cccs2)cc(-c2ccc(S(C)(=O)=O)cc2)n1 [Compound 156] ?
## Output 3.208

## Input Given CS(=O)(=O)c1ccc(-c2cccc(/C=C\c3ccoc3)n2)cc1 [Compound 35] , state its recorded COX2 2 minutes pge2/pge2d4 area ratio Avg. LLE.
## Output 4.232

## Input What COX2 2 minutes pge2/pge2d4 area ratio Avg. LLE value was documented for this molecule, C[C@@H](Nc1cccc(-c2ccc(S(C)(=O)=O)cc2)n1)c1ccco1 (single isomer, unassigned) [Compound 274] ?
## Output 1.914

## Input Look up COX2 2 minutes pge2/pge2d4 area ratio Avg. LLE for this molecule: Cc1occc1CNc1cccc(-c2ccc(S(C)(=O)=O)cc2)n1 [Compound 21]
## Output 4.818

## Input Which COX2 2 minutes pge2/pge2d4 area ratio Avg. LLE value is on record for C[C@@H](Oc1cncc(-c2ccc(S(C)(=O)=O)cc2)n1)c1cccs1 (single isomer, unassigned) [Compound 249] ?
## Output 2.526

## Input I'd like to know its COX2 2 minutes pge2/pge2d4 area ratio Avg. LLE. The molecule in question is CS(=O)(=O)c1ccc(-c2cnc3ccn(Cc4cccs4)c3n2)cc1 [Compound 74]
## Output 3.899

## Input # COX2 2 minutes pge2/pge2d4 area ratio Avg. LLE lookup, item CS(=O)(=O)c1ccc(-c2cnc(N)c(OCc3cccs3)n2)cc1 [Compound 86]
## Output 5.134

## Input Requested field: COX2 2 minutes pge2/pge2d4 area ratio Avg. LLE. Item: CS(=O)(=O)c1ccc(-c2ccc(F)c(NCc3ccoc3)n2)cc1 [Compound 33]
## Output 4.757

## Input For the molecule shown here, COc1cc(S(C)(=O)=O)ccc1-c1cccc(NCc2cccs2)n1 [Compound 259] , give the reported COX2 2 minutes pge2/pge2d4 area ratio Avg. LLE.
## Output 1.917

## Input Entry under review: Cn1ccc(COc2cncc(-c3ccc(S(C)(=O)=O)cc3)n2)n1 [Compound 181] . Reported COX2 2 minutes pge2/pge2d4 area ratio Avg. LLE?
## Output 5.19

## Input # get_value(readout='COX2 2 minutes pge2/pge2d4 area ratio Avg. LLE', item= CS(=O)(=O)c1ccc(-c2cncc(NC[C@@H]3CCCO3)n2)cc1 [Compound 224] )
## Output 4.828

## Input Fill in the blank: the reported COX2 2 minutes pge2/pge2d4 area ratio Avg. LLE of CS(=O)(=O)c1ccc(-c2cccc(/C=C/c3ccoc3)n2)cc1 [Compound 247] is ____.
## Output 1.819

## Input Can you share its COX2 2 minutes pge2/pge2d4 area ratio Avg. LLE? I mean this molecule: COc1ncc(NCc2ccccn2)nc1-c1ccc(S(C)(=O)=O)cc1 [Compound 228]
## Output 4.528

## Input COX2 2 minutes pge2/pge2d4 area ratio Avg. LLE for CS(=O)(=O)c1ccc(-c2cnc(N)c(NCc3cccs3)n2)cc1 [Compound 165] ?
## Output 4.592

## Input Suppose we examine the molecule Cn1cc(CNc2cncc(-c3ccc(S(C)(=O)=O)cc3)n2)cn1 [Compound 237] ; what COX2 2 minutes pge2/pge2d4 area ratio Avg. LLE value has been reported?
## Output 4.753

## Input Any idea what its COX2 2 minutes pge2/pge2d4 area ratio Avg. LLE is? The molecule is CS(=O)(=O)c1ccc(-c2cncc(SC[C@@H]3CCCO3)n2)cc1 (single isomer, unassigned) [Compound 186]
## Output 4.315

## Input Bench note: what COX2 2 minutes pge2/pge2d4 area ratio Avg. LLE did C[S+]([O-])c1ccc(-c2cncc(NCc3cccs3)n2)cc1 (centres unmarked) [Compound 129] show?
## Output 5.405

## Input Requested read-out: COX2 2 minutes pge2/pge2d4 area ratio Avg. LLE. Entry: CS(=O)(=O)c1ccc(-c2cc(NCc3cccs3)cnn2)cc1 [Compound 220]
## Output 3.784

## Input What measured COX2 2 minutes pge2/pge2d4 area ratio Avg. LLE goes with CS(=O)(=O)c1ccc(-c2cncc(NCc3ccc(F)cn3)n2)cc1 [Compound 221] ?
## Output 4.887

## Input Could you tell me which COX2 2 minutes pge2/pge2d4 area ratio Avg. LLE is on file for CS(=O)(=O)c1ccc(-c2cccc(NCc3ccco3)n2)cn1 [Compound 250] ?
## Output 3.529

## Input Name the recorded COX2 2 minutes pge2/pge2d4 area ratio Avg. LLE for CS(=O)(=O)c1ccc(-n2ccc3cnc(NCc4cccs4)nc32)cc1 [Compound 80] .
## Output 3.33

## Input # get_value(readout='COX2 2 minutes pge2/pge2d4 area ratio Avg. LLE', item= CS(=O)(=O)c1ccc(-c2cccc(C(=O)C(=O)c3cccs3)n2)cc1 [Compound 190] )
## Output 3.528

## Input Look up COX2 2 minutes pge2/pge2d4 area ratio Avg. LLE for this molecule: CS(=O)(=O)c1ccc(-c2cncc(SC[C@H]3CCCO3)n2)cc1 (single isomer, unassigned) [Compound 154]
## Output 4.687

## Input What does the record list as COX2 2 minutes pge2/pge2d4 area ratio Avg. LLE for CS(=O)(=O)c1ccc(-c2ncc3ncn(Cc4cccs4)c3n2)cc1 [Compound 164] ?
## Output 2.595

## Input Dear colleague, I am looking for the recorded COX2 2 minutes pge2/pge2d4 area ratio Avg. LLE of the following molecule: CS(=O)(=O)c1ccc(-c2cccc(OCc3cccs3)n2)cc1 [Compound 1]
## Output 4.864

## Input Bench note: what COX2 2 minutes pge2/pge2d4 area ratio Avg. LLE did CS(=O)(=O)c1ccc(-c2cncc(NCc3ccco3)n2)cc1 [Compound 120] show?
## Output 5.371

## Input Field request: COX2 2 minutes pge2/pge2d4 area ratio Avg. LLE | item: CS(=O)(=O)c1ccc(-c2cc3ccoc3c(NCc3cccs3)n2)cc1 [Compound 67]
## Output 3.0886

## Input What value of measured COX2 2 minutes pge2/pge2d4 area ratio Avg. LLE is listed for CC(C)CN(C)c1cncc(-c2ccc(S(C)(=O)=O)cc2)n1 [Compound 243] ?
## Output 3.642
